# Organism: Rattus norvegicus
# Assay Notes: Selectivity ratio of Ki for rat GABAA alpha-3-beta-3-gamma-2 receptor to Ki for GABAA alpha-1-beta-3-gamma-2 receptor
Reported Selectivity ratio values are given for each entry in this list.

# Structure Notation, Selectivity ratio
measured = [
    ("Cc1ccc2c(c1)c(=O)cc(-c1cc(Br)ccc1O)n2C", 8),
    ("Cc1ccc2[nH]c(-c3cc(Br)ccc3O)cc(=O)c2c1", 8),
    ("Cc1ccc2oc(-c3cc(Br)ccc3O)cc(=O)c2c1", 8),
    ("Cc1ccc2[nH]c(-c3cc(Cc4ccccc4)ccc3O)cc(=O)c2c1", 8),
]
